Target: T1, human CD22-ECD-His protein (human, UniProt P20273 20-687)
T1 construct: Made in house in HEK293E; also called hCD22-ECD-His; recombinant human CD22-ECD His protein; not shown: His tag
T1 sequence: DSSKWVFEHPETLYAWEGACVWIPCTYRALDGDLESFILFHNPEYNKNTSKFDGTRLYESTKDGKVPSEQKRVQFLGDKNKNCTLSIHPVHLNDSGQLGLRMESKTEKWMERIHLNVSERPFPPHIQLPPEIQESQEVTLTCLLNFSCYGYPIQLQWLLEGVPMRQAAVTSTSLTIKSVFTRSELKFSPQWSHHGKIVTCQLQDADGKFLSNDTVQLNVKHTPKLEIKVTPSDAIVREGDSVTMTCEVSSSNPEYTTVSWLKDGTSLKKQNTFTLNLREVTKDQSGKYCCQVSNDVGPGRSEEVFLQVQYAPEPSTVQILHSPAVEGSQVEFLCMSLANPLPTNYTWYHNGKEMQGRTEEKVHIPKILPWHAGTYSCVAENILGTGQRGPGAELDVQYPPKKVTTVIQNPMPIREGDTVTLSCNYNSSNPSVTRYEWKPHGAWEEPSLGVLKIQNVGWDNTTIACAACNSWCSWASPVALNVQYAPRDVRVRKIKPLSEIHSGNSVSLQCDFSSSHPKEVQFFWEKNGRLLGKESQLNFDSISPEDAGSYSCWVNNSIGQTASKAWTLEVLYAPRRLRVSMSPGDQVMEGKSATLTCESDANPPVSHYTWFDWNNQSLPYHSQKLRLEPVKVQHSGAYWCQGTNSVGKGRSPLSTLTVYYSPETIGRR
Assay: ELISA, Ab 100.00 nM
Protocol: In order to detect the binding activity of CD22 human-murine chimeric antibodies to CD22 protein, the purified human CD22-ECD-His protein obtained in Example 2 was diluted with PBS to a final concentration of 2 μg/mL, and then added to 96-well ELISA plate at 100 μl/well. The plate was sealed with plastic film and incubated overnight at 4° C., the plate was washed 2 times with PBS the next day, and then a blocking solution [PBS+2% (w/w) BSA] was added for blocking at room temperature for 2 hours. […]
What OD450 was measured for each of the following?
Only the number, expressed in OD450, is required.

Prompt line: Reported OD450, binder F1.280.1 (antibody, human IgG1, kappa, V domains shown, Human-murine chimeric IgG1, kappa) VH: QIQLVQSGPELKKPGETVKISCKASGYTFTTYGMSWVKQTPGKGLTWMGWINTDSGVPTYADDFKRRFAFSLEASATTAYLQINNLKNEDTATYFCARGGPDYWGQGTTLTVSS VL: DILLTQSPATLSVTPGETVSLSCRASQSIYKNLHWYHQKSHRSPRLLIKYASDSISGIPSRFTGSGSGTNFTLSINSVKPEDEGIYYCLQGYIVPLTFGAGTKLELKR : ____
Response line: 2.46

Prompt line: Reported OD450, binder F2.205.9 (antibody, human IgG1, lambda, V domains shown, Human-murine chimeric IgG1, lambda) VH: QVTLKESGPGILQPSQTLSLTCSFSGFSLSTSGMGVGWIRQPSGKGLEWLAHIWWDDDEYYNPALKSRLTISKDTSKNQVFLKIANVDTADTATYYCARISIPYGYYDWFFDVWGTGTTVTVSA VL: QAVVTQESALTTSPGETVTLTCRSSTGAVTTRNYANWVQEKPDHLFTGLIGGTNNRAPGVPARFSGSLIGDKAALTITGAQTEDEAIYFCALWYSNHFIFGSGTKVTVLG : ____
Response line: 2.22

Prompt line: Reported OD450, binder F1.224.1 (antibody, human IgG1, kappa, V domains shown, Human-murine chimeric IgG1, kappa) VH: EVLLHQSGPELVKPGASVKISCKASGYTFTDFNMDWVRQRHGQSLEWIGDVNPNNGGTIYNQKFKGKATLTVDKSSSTVYMDLRSLTSDDTAVYYCVRLGTSDYGEAWFISWGQGTVVTVSA VL: DIVLTQSPASLAVSLGQRATISCRASQSVSTPRYSFMHWYQQKPGQPPKLLIKYASNLESGFPARFTGSGSGTDFTLNIHPVEEEDTAAYYCQQSWAIPWTFGGGTKLEIKR : ____
Response line: 3.12

Prompt line: Reported OD450, binder F1.17.1 (antibody, human IgG1, kappa, V domains shown, Human-murine chimeric IgG1, kappa) VH: QVQLKESGPGLVAPSQSLSITCTVSGFSLSRYTVHWVRQPPGKGLEWLGMIWGGGSTDYNSALKSRLSISKDNSKSQVFLKMNSLQTDDTAMYYCARPHDFDAGGFAYWGQGTLVTVSA VL: QIVLTQSPAILSTSPGEKVTMTCSASSRVNYMYWYQQKPGSSPRLLIYDTSNLASGVPVRFSGSGSGTSYSLTISRMEAEDAATYYCQQWTSYPLTFGAGTKLELKR : ____
Response line: 2.86

Prompt line: Reported OD450, binder F1.60.9 (antibody, human IgG1, kappa, V domains shown, Human-murine chimeric IgG1, kappa) VH: QVQLKESGPGLVAPSQSLSITCTVSGLSLNNYGVSWVRQPPGKGLEWLGVIWGDGSTNYHSALISRLSISKDNSKSQVFLKLNSLHTDDTATYYCAINWGDYWGQGTTLIVSS VL: DIKMTQSPSSMNASLGERVTITCKASQDINSYLSWFQQKPGKSPKILIYRANRLIDGVPSRFSGSGSGQDYSLTISSLEYEDMGIYYCLQYGVFPLTFGAGTKLELKR : ____
Response line: 2.82
